Biological target: T1, human ROR2 extracellular domain (ROR2 ECD recombinant protein) (human, UniProt Q01974 34-403)
T1 construct: also called human ROR2-ECD; hROR2-ECD
T1 sequence (Q01974 34-403): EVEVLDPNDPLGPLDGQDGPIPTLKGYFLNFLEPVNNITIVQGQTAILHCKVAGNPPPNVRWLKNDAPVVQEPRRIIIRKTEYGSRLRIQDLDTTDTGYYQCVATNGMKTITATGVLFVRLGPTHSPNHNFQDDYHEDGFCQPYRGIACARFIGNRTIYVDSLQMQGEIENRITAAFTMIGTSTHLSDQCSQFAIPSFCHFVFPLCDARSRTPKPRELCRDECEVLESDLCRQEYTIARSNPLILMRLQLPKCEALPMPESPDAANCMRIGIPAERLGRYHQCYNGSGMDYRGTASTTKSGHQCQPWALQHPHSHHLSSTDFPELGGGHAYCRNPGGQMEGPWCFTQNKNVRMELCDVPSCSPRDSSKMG
Experiment: kinetic binding analysis, full length IgG1 on human ROR2-ECD
REPORTED_PROPERTY: koff (s⁻¹)

BINDER | TEST_RESULT
ROR2-241 full length human IgG1 antibody (antibody, V domains shown) VH: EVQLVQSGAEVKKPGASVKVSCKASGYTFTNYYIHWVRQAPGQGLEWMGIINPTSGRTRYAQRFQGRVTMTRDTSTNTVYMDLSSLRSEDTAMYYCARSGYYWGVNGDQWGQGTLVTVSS VL: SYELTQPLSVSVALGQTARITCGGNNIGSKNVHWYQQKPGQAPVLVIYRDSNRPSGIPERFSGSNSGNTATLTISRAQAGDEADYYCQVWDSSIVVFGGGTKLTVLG | 0.000538
